# SYSTEM: Mitogen-activated protein kinase kinase kinase 5 (Homo sapiens)
# Sequence (Q99683 whole entry): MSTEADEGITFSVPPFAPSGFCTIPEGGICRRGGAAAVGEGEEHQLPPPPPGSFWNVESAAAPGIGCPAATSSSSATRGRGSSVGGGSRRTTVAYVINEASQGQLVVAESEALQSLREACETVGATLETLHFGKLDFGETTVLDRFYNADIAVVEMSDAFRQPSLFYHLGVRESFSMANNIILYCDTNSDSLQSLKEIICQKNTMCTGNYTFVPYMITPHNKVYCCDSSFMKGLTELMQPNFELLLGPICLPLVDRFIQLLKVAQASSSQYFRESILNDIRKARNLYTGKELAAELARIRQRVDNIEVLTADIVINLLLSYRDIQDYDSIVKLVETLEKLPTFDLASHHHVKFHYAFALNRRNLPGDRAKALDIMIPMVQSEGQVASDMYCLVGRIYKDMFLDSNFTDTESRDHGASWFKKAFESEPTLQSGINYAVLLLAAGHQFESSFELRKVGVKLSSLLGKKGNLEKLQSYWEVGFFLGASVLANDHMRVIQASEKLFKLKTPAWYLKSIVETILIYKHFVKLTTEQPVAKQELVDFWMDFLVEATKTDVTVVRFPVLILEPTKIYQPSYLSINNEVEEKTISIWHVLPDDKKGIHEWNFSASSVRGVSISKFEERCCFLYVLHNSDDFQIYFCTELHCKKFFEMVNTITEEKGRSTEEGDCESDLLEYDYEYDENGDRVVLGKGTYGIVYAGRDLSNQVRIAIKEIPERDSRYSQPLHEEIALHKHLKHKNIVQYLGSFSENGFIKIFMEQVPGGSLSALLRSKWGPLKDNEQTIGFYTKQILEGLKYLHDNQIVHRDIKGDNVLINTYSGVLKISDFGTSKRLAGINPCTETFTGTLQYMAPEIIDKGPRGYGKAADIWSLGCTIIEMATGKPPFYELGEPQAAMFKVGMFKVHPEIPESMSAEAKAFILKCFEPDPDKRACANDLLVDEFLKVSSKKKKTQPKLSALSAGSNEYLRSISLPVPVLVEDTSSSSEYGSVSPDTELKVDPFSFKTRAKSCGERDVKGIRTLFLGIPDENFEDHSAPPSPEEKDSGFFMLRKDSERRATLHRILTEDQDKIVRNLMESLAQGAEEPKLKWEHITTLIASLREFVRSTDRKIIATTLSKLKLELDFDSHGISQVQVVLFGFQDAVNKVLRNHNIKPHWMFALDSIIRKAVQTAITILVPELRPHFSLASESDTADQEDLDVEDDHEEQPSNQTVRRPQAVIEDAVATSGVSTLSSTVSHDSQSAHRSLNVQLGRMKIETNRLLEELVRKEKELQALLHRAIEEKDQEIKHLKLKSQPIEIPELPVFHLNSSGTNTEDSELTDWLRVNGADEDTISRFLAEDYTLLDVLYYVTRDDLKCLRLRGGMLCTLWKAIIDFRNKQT
# ASSAY EXPLANATION: HTRF KinEASE Assay: ASK1 was purchased from Thermofisher (Catalogue #PV4011), ATP was purchased from Sigma (Catalogue #A7699), HTRF® KinEASE™ Assay System was obtained from Cisbio (Bedford, Mass.). ½ Area plate was purchased from Perkin Elmer (Catalogue ##6005560). HTRF® KinEASE™-STK is a generic method for measuring serine/threonine kinase activities using a time-resolved fluorescence resonance energy transfer (TR-FRET) immunoassay. The IC50 value for each compound was determined in the presence of compound (various concentration from 0 to 10 μM) and a fixed amount of ATP and peptide substrates. The test compound, 1 uM STK3 peptide substrate, and 5 nM of ASK1 kinase are incubated with kinase reaction buffer containing 50 mM HEPES pH 7.5, 0.01% BRIJ-35, 10 mM MgCl2, and 1 mM EGTA for 30 minutes. 100 uM ATP is added to start kinase reaction and incubated for 3 hours. The STK3-antibody labeled with Eu3+-Cryptate and 125 nM streptavidin-XL665 are mixed in a single addition with stop reagents provided by the Cisbio kit used to stop the kinase reaction. Fluorescence is detected using an Envision Multilabeled 2014 reader from PerkinElmer. The Fluorescence is measured at 615 nm (Cryptate) and 665 nm (XL665) and a ratio of 665 nm/615 nm is calculated for each well. The resulting TR-FRET is proportional to the phosphorylation level. Staurosporine was used as the positive control.
MEASURED METRIC: IC50

Field request: IC50 | item: `Cc1cc(F)c(C(=O)Nc2cccc(-n3cnnc3)n2)cc1-n1cnc(C2CC2)c1` > 1000 nM
